Each entry below lists one item and its recorded IC50 value.
target system: UniProt O15530
Sequence (O15530 51-359): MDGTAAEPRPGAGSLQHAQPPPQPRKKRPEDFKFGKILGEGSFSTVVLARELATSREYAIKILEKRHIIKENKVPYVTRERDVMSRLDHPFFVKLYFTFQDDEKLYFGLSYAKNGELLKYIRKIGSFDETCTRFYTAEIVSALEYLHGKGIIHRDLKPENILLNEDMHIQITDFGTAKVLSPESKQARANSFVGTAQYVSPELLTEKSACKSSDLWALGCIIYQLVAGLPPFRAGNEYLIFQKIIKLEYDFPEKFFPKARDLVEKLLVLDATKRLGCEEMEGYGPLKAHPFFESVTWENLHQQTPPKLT
assay notes: PDK1 kinase assay (coupled PDK1/AKT/FAM-crosstide assay, IMAP fluorescence polarization)
Assay type: biochemical
condition details: inhibition of PDK1 in vitro

N#Cc1cnc(NCc2ccc(-c3c[nH]c4ncnc(N)c34)cc2)c(-c2nccs2)c1 [Example 352] ... < 100 nM
C[C@H](NC(=O)c1nccnc1NCc1ccc(-c2ccc(N)nc2)cc1)c1ccc(F)cc1 [Example 371] ... < 100 nM
C[C@H](NC(=O)c1cc(C#N)cnc1NCc1ccc(-c2cnc(N)c(C(=O)NCC(O)CO)c2)cc1)c1ccc(F)cc1 (stereo partly shown) [Example 206] ... < 100 nM
C[C@H](NC(=O)c1nc(C#N)cnc1NCc1ccc(-c2cnc(N)c(N3CCNCC3)n2)cc1)c1ccc(F)c(F)c1 [Example 192] ... < 100 nM
CNc1ncc(-c2ccc(CNc3ncc(C#N)cc3C(=O)N[C@@H](C)c3ccc(F)cc3)cc2)cc1F [Example 109] ... > 5000 nM
C[C@H](NC(=O)c1cc(C#N)cnc1NCc1ccc(-c2cn(S(=O)(=O)c3ccccc3)nc2N)cc1)c1ccc(F)cc1 [Example 143] ... > 5000 nM

[ask] Need IC50 of C[C@H](NC(=O)c1cc(C#N)cnc1NCc1ccc(-c2cnc(N)c(CCCO)n2)cc1)c1ccc(F)cc1 [Example 91] , thanks.
[reply] < 100 nM
